Recorded IC50 values for a group of compounds are listed next.
Target or system: full length active recombinant SYK enzyme (Homo sapiens, UniProt P43405)
Construct: full length active recombinant SYK enzyme (Millipore, Calif.)
Test: Inhibition of Syk tyrosine phosphorylation activity (LANCE TR-FRET kinase assay)
Details: activity in the Syk assays, class symbols

Some entries whose results are on file:
- Smiles notation: "CC[C@@H](Nc1cnc(C(N)=O)c(Nc2ccc(C(=O)N(C)C)cc2)n1)C(N)=O"
  Value: "100 to 1000 nM"
- Smiles notation: "CC(C)(C)C[C@@H](Nc1cnc(C(N)=O)c(Nc2ccnc(F)c2)n1)C(N)=O"
  Value: "1 to 10 nM"
- Smiles notation: "CC[C@@H](Nc1cnc(C(N)=O)c(Nc2cc(C)ns2)n1)C(N)=O"
  Value: "1 to 10 nM"
- Smiles notation: "NC(=O)c1ncc(N[C@H](C2CC2)C2(N)CC2)nc1Nc1cccc(-c2ncccn2)c1"
  Value: "1 to 10 nM"
- Smiles notation: "CN(C)C(=O)c1cc(Nc2nc(N[C@@H]3CCCC[C@@H]3N)cnc2C(N)=O)sn1"
  Value: "1 to 10 nM"

Requested field: IC50. Item: "CC(C)[C@@H](Nc1cnc(C(N)=O)c(Nc2ccc(CS(C)(=O)=O)cc2)n1)C(N)=O"
100 to 1000 nM

Requested field: IC50. Item: "CC[C@@H](Nc1cnc(C(N)=O)c(Nc2cccc3c2ccn3C)n1)C(N)=O"
1 to 10 nM

====

Target or system: full length active recombinant SYK enzyme (Homo sapiens)
Construct: full length active recombinant SYK enzyme (Millipore, Calif.)
Test: Inhibition of Syk tyrosine phosphorylation activity (LANCE TR-FRET kinase assay)
Details: activity in the Syk assays, class symbols
Description: The in vitro and in vivo human Syk activities of the inventive compounds can be determined by various procedures known in the art, such as a test for their ability to inhibit the activity of human plasma Syk. […] Potency of candidate molecules for inhibiting Syk tyrosine phosphorylation activity is assessed by measuring the ability of a test compound to inhibit Syk-mediated tyrosine phosphorylation of a Syk-specific substrate. […]
pIC50: −log10 of the molar value.
Value type: pIC50

- Molecule: "CC(C)C[C@@H](Nc1cnc(C(N)=O)c(Nc2ccc(-c3ccccn3)cc2)n1)C(N)=O [Example 88]"
  pIC50: "8.00 to 9.00"

Test system full length active recombinant SYK enzyme (Homo sapiens); read-out pIC50; what value for NC(=O)c1ncc(N[C@@H]2CCCC[C@@H]2N)nc1Nc1cccc(C(=O)N2CCCC2)c1 [Example 287] ?
7.00 to 8.00

Test system full length active recombinant SYK enzyme (Homo sapiens); read-out pIC50; what value for CC(C)(C)[C@@H](Nc1cnc(C(N)=O)c(Nc2ccc3ncccc3c2)n1)C(N)=O [Example 192] ?
8.00 to 9.00

Test system full length active recombinant SYK enzyme (Homo sapiens); read-out pIC50; what value for CC(=O)N1CC[C@@H](Nc2cnc(C(N)=O)c(Nc3ccc4ncccc4c3)n2)C1 [Example 111] ?
< 6.00

Test system full length active recombinant SYK enzyme (Homo sapiens); read-out pIC50; what value for NC(=O)c1ncc(N[C@@H]2CCNC2)nc1Nc1cccnc1 [Example 113] ?
7.00 to 8.00

====

Target or system: full length active recombinant SYK enzyme (Homo sapiens)
Construct: full length active recombinant SYK enzyme (Millipore, Calif.)
Test: Inhibition of Syk tyrosine phosphorylation activity (LANCE TR-FRET kinase assay)
Details: activity in the Syk assays, class symbols
pIC50: −log10 of the molar value.
Value type: pIC50

- Smiles notation: "CC[C@@H](Nc1cnc(C(N)=O)c(Nc2cc(C)ccn2)n1)C(N)=O"
  Value: "< 6.00"

Requested field: pIC50. Item: "NC(=O)c1ncc(N[C@@H]2CCCC[C@@H]2N)nc1N[C@@H]1COc2ccccc2C1"
6.00 to 7.00

Requested field: pIC50. Item: "CC[C@@H](Nc1cnc(C(N)=O)c(Nc2ccc3ncncc3c2)n1)C(N)=O"
7.00 to 8.00

Requested field: pIC50. Item: "NC(=O)c1ncc(N[C@@H]2CCNC2)nc1Nc1cncc(F)c1"
6.00 to 7.00

All values here come from patent US9359308B2.
